biological target: T1, human LILRB2 expressed on cells (293T-LILRB2, CHO-K1-LILRB2) (human, UniProt Q8N423 22-597); experiment: flow cytometry on 293T-LILRB2 cells, serial dilution, APC anti-human IgG; fit table under the graph
T1 construct: whole, on cells; the cell line is named under assay; also called HEK293T-LILRB2
T1 sequence (Q8N423 22-597): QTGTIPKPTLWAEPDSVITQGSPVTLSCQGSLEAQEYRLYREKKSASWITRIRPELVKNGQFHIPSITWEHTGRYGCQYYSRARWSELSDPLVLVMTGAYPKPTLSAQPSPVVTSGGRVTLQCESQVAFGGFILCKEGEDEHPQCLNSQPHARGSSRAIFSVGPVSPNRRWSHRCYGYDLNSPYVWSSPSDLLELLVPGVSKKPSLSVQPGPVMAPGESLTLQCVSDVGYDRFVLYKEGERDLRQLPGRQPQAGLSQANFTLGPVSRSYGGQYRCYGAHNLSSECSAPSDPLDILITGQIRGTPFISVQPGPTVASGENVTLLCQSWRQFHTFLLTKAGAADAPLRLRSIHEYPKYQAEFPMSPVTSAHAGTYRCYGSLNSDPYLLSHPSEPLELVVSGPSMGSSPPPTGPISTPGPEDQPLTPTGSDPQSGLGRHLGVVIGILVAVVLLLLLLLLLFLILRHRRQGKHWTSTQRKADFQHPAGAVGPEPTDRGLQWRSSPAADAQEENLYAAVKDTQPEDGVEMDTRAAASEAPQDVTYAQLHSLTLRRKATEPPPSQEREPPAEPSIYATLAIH
endpointLabel: Bmax

Solved cases below.
{"columns": ["binder", "Bmax"],
 "data": [
  ["h#2G3 (antibody, V domains shown, also called Antibody h#2G3) VH: EVQLVESGGGLVQPGGSLRLSCAVSGYSITSGYYWNWIRQAPGKGLEWVAYISYDGNNNYNPSLKNRFTISRDTSKNTVYLQMNSLRAEDTAVYYCAREESTMITTAWFAYWGQGTLVTVSS VL: DIQLTQSPSSLSASVGDRVTITCRASENIYSNLAWYQQKPGKAPKLLIYGATNLASGVPSRFSGSGSGTDYTLTISSLQPEDFATYYCQHFWDTPYTFGQGTKVEIK", "683000 RFU"],
  ["Antibody h#2E1 (antibody, V domains shown, Humanized variant of 11B12; detected with anti-human IgG) VH: EVQLVESGGGLVQPGGSLRLSCAVSGYSITSGYYWNWIRQAPGKGLEWVAYISYDGNNNYNPSLKNRFTISRDTSKNTFYLQMNSLRAEDTAVYYCAREESTMITTAWFAYWGQGTLVTVSS VL: DIQMTQSPSSLSASVGDRVTITCRASENIYSNLAWYQQKPGKAPKLLIYGATNLASGVPSRFSGSGSGTDYTLTISSLQPEDFATYYCQHFWDTPYTFGQGTKVEIK", "647000 RFU"]
]}

Now for a further binder.
# input Param item = Antibody h#2D2 (antibody, V domains shown, Humanized variant of 11B12) VH: EVQLVESGGGLVQPGGSLRLSCAVSGYSITSGYYWNWIRQAPGKGLEWVAYISYDGNNNYNPSLKNRFTISRDASKNTFYLQMNSLRAEDTAVYYCAREESTMITTAWFAYWGQGTLVTVSS VL: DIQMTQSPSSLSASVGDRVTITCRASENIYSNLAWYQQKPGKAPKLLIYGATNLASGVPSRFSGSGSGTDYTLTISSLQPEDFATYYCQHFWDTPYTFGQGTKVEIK ; retrieve measured Bmax.
# output 608000 RFU

Taken from patent US20240109962A1.
